Origin of the recorded values: ChEMBL document CHEMBL2176886

Test system: Human immunodeficiency virus 1
PROTOCOL TEXT: Antiviral activity against HIV1 NL4-3 infected in human MT4 cells assessed as p24 antigen level after 4 days by ELISA
Assay type: functional, organism-based
EXPERIMENTAL CONDITIONS: Human immunodeficiency virus 1, NL4-3, MT4, 96 h
pIC50: −log10 of the molar value.
Attribute: pIC50

SMILES ENTRY	pIC50
C=C(C)[C@@H]1CC[C@]2(C(=O)OCCCCCC(=O)OCC)CC[C@]3(C)[C@H](CC[C@@H]4[C@@]5(C)CC[C@H](OC(=O)CC(C)(C)C(=O)O)C(C)(C)[C@@H]5CC[C@]43C)[C@@H]12	7.25
C=C(C)[C@@H]1CC[C@]2(C(=O)N3CCC(CCCC(=O)NC)CC3)CC[C@]3(C)[C@H](CC[C@@H]4[C@@]5(C)CC[C@H](OC(=O)CC(C)(C)C(=O)O)C(C)(C)[C@@H]5CC[C@]43C)[C@@H]12	6.62
C=C(C)[C@@H]1CC[C@]2(C(=O)OCCCCCC)CC[C@]3(C)[C@H](CC[C@@H]4[C@@]5(C)CC[C@H](OC(=O)CC(C)(C)C(=O)O)C(C)(C)[C@@H]5CC[C@]43C)[C@@H]12	5.74
C=C(C)[C@@H]1CC[C@]2(C(=O)N3CCN(CCCC(=O)O)CC3)CC[C@]3(C)[C@H](CC[C@@H]4[C@@]5(C)CC[C@H](OC(=O)CC(C)(C)C(=O)O)C(C)(C)[C@@H]5CC[C@]43C)[C@@H]12	7.96
